Hello, the source for this data is paper PMC9728131, in case you need it.

# TESTED_SYSTEM: CadCc (Escherichia coli K-12 MG1655 (cloning template per Methods; text discusses Salmonella CadC))
# Sequence: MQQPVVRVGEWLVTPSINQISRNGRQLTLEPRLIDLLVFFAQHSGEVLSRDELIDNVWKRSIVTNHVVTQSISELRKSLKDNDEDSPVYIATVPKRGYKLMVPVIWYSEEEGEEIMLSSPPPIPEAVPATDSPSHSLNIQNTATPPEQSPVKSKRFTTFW
# EXPERIMENT: BLI
# REPORTED_CONDITIONS: EMSA: 20 mM Tris-HCl pH 8.0, 100 mM NaCl, 1 mM MgCl2, 1 mM ZnCl2, 4% glycerol, RT 10 min (competition 4 C, 30 min + 30 min); BLI: PBS + 1 mM ZnCl2 (CadCc …)
READOUT_NAME: Kd (nM)

>>> endpoint_value("TCATCATATATAATGATAT (double strand) [19 nt overlap DNA of ydiV promoter]")
203
